- measurement-notes: Oral bioavailability in dog
- Format: ADME, organism-based, Canis lupus familiaris
- recorded-conditions: in vivo
experimental-readout: bioavailability
Quote the value and follow it with the unit of measurement.

# lookup: bioavailability of `Cc1ccccc1N1CCN(S(=O)(=O)C[C@]23CC[C@H](C[C@@H]2NC(=O)[C@@H](N)CCS(C)(=O)=O)C3(C)C)CC1`
17%

====

- study-target: Vasopressin V1b receptor (Homo sapiens)
- Sequence (P47901 whole entry): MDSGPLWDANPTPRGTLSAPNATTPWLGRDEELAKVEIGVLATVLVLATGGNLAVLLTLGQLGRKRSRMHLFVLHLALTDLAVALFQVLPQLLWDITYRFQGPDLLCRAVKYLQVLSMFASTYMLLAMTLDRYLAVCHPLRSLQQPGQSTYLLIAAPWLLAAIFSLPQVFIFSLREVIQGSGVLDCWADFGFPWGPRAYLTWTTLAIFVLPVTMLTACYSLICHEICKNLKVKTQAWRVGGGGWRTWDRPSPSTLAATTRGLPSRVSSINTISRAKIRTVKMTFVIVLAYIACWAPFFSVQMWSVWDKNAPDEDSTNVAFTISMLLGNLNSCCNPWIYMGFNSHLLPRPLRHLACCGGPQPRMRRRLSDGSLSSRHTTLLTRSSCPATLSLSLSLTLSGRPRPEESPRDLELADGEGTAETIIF
experimental-readout: Ki (nM)
# unit: nM | format: bare number

# lookup: Ki of `CN[C@@H](CCS(C)(=O)=O)C(=O)N[C@H]1C[C@H]2CC[C@]1(CS(=O)(=O)N1CCN(c3ccccc3C)CC1)C2(C)C`
1300

Where these numbers come from: ChEMBL document CHEMBL2390856
